# System: K562 CRISPRi cells
# protocol-details: Constant region variant library pooled growth screen, K562
# Assay type: cell-based, human
# experimental-context: sgRNA constant region variants; activity relative to the original, un-modified constant region cr995
parameter-measured: Mean relative activity

* cr483 (nucleic acid, listed as DNA, chemistry not fully specified) guide: GTTTAAGAGCTAAGCTGGAAACAGCATAGCAAGTTTAAATAAGGCTAGTCCGTTATCAACTAGAAATAGTGGCGTCGAGTCGACGCT | 1.037
* cr062 (nucleic acid, listed as DNA, chemistry not fully specified) guide: GTTCAAGTGCTAAGCTGGAAACAGCATAGCAAGTTTAAATAAGGCTAGTCCGTTATCAACTTGAAAAAGTGGCACCGAGTCGGTGCT | 0.1003
